Hello, the source for this data is patent US10246462B2, in case you need it.

Consider the following compounds and their measured IC50 readings.
- study system: UniProt:P51679
- Sequence (P51679 whole entry): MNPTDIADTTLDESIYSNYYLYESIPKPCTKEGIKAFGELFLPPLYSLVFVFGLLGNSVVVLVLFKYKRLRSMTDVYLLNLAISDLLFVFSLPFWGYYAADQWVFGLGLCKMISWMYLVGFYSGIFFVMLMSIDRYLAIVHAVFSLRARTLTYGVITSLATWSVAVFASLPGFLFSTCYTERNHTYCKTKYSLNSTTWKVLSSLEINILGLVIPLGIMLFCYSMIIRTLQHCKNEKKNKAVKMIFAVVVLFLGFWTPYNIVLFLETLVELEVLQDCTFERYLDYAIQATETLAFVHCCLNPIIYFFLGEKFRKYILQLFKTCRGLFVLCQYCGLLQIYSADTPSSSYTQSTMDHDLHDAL
- run description: Calcium mobilization (Ca Flux) assay
- Type: cell-based
- Method: Calcium Mobilization Assay. Calcium mobilization experiments may be performed by labeling the human T-cell line CEM with […] dye (45 min at room temperature), washing with PBS, and re-suspending into flux buffer (HBSS with 1% FBS).
Where a name gives a salt, the structure may show the parent alone.

// worked examples, IC50 included
- compound: "CC1CC(c2cnc3c(C#N)nn([C@H](C)c4ccc(Cl)cc4Cl)c3n2)=CCC1N1CCC[C@H]1C(N)=O (stereo partly drawn) [Example 79, hydrochloride]"
  IC50: "< 0.1 µM"
- compound: "Cc1nn([C@H](C)c2ccc(Cl)cc2Cl)c2nc(N3CC[C@H](N4CCC[C@H]4C(=O)O)[C@H](C)C3)cnc12 [Example 34, 2,2,2-trifluoroacetate]"
  IC50: "> 0.5 µM"
- compound: "C[C@@H]1CN(c2cnc3c(C#N)nn([C@H](C)c4ccc(Cl)cc4Cl)c3n2)CC[C@@H]1N1CCC[C@@H](CC(=O)O)C1 [Example 39, formate]"
  IC50: "0.1 to 0.5 µM"
- compound: "C[C@H](c1ccc(Cl)cc1Cl)n1nc(C#N)c2ncc(C3=CC[C@@H](N4CCC[C@H]4CO)[C@@H](C)C3)nc21"
  IC50: "0.1 to 0.5 µM"
- compound: "Cc1nn([C@H](C)c2ccc(Cl)cc2Cl)c2nc(N3CC[C@H](N4CCC[C@@H](CC(=O)O)C4)[C@H](C)C3)cnc12 [Example 38, formate]"
  IC50: "0.1 to 0.5 µM"

Then this compound:
What measured IC50 goes with Cc1nn([C@H](C)c2ccc(Cl)cc2Cl)c2nc(N3CCC(N4CCC[C@H]4CC(F)C(=O)O)C(C)C3)cnc12 (single isomer, unassigned) [Example 56] ?
0.1 to 0.5 µM
